# target.desc: D(2) dopamine receptor (Homo sapiens, UniProt P14416)
# Sequence (P14416 whole entry): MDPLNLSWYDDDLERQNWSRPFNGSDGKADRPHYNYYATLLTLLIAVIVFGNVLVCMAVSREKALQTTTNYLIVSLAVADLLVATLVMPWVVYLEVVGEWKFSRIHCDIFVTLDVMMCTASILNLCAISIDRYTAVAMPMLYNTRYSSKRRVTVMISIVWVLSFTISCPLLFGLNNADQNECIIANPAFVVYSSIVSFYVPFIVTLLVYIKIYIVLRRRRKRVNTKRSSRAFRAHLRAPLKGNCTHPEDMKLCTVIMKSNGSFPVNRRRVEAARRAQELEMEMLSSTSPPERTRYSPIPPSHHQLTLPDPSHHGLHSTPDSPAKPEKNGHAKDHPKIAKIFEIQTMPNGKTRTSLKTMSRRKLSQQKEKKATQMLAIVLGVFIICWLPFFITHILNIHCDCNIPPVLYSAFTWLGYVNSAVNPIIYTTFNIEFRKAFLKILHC
test.readout: IC50 (nM)
# number only, unit nM dropped from output

Query block: Any idea what IC50 came out for O/N=C/c1cnn2ccc(OCCCCN3CCN(c4cccc(Cl)c4Cl)CC3)cc12 (stereo in doubt; 8b) on D(2) dopamine receptor (Homo sapiens, UniProt P14416)?
Result block: 3.8

====

Reported pKi values for the following compounds.
# target.desc: D(4) dopamine receptor (Homo sapiens, UniProt P21917)
# Sequence (P21917 whole entry): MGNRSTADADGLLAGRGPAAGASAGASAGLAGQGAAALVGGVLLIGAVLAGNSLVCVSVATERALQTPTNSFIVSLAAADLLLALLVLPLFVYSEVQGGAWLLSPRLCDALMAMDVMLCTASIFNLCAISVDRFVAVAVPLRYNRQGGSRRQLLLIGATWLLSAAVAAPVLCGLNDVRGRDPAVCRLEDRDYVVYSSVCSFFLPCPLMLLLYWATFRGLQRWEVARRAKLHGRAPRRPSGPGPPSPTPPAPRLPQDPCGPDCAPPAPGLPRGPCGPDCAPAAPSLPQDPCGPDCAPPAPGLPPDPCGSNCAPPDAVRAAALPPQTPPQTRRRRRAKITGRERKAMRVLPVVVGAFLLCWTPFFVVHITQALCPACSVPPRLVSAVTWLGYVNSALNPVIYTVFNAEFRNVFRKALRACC
Remember, pKi is on a log scale: it is -log10 of the molar concentration.

Query block: Enter reported pKi observed with D(4) dopamine receptor (Homo sapiens, UniProt P21917) for "Clc1cccc(N2CCN(CCCCOc3ccn4nccc4c3)CC2)c1Cl"
Result block: 6.89

Query block: Any idea what pKi came out for "O/N=C/c1cc2cc(OCCCCN3CCN(c4cccc(Cl)c4Cl)CC3)ccn2n1" on D(4) dopamine receptor (Homo sapiens, UniProt P21917)?
Result block: 7.62

Query block: Item: O/N=C/c1cnn2ccc(OCCCCN3CCN(c4cccc(Cl)c4Cl)CC3)cc12 (stereo in doubt; 8b) Test system: D(4) dopamine receptor (Homo sapiens, UniProt P21917) Read-out: pKi Value: ?
Result block: 8.22

Query block: Query the reported pKi for D(4) dopamine receptor (Homo sapiens, UniProt P21917); item: "Clc1cccc(N2CCN(CCCCOc3cccc4ccnn34)CC2)c1Cl"
Result block: 7.80

Query block: Can you look up pKi on D(4) dopamine receptor (Homo sapiens, UniProt P21917) for "O=Cc1cc2cc(OCCCCN3CCN(c4cccc(Cl)c4Cl)CC3)ccn2n1" ?
Result block: 7.05

====

# target.desc: D(3) dopamine receptor (Homo sapiens, UniProt P35462)
# Sequence (P35462 whole entry): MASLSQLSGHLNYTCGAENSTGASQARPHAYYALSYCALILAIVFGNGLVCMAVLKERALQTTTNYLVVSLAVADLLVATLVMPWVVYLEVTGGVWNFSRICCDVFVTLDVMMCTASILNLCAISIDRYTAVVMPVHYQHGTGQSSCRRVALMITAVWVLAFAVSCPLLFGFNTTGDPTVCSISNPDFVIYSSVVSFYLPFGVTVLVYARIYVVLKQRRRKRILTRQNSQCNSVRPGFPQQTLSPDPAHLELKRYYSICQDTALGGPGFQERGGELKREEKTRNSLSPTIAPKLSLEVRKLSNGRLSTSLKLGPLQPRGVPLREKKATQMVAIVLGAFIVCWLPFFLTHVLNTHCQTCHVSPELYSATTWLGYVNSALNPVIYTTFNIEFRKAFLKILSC
# experimental.protocol: biochemical
# Format: cell-based, CHO
test.readout: Ki
Could you give the number and then its unit, please?

Solved cases below.
O=Cc1cc2cc(OCCCCN3CCN(c4cccc(Cl)c4Cl)CC3)ccn2n1 6 nM
O=Cc1cnn2ccc(OCCCCN3CCN(c4cccc(Cl)c4Cl)CC3)cc12 6.9 nM
Clc1cccc(N2CCN(CCCCOc3cccn4nccc34)CC2)c1Cl 10 nM

Here is another compound to look at.
Query block: Recorded Ki for "O=Cc1cnn2c(OCCCCN3CCN(c4cccc(Cl)c4Cl)CC3)cccc12" , please?
Result block: 6.4 nM

====

Listed here are compounds together with their documented Ki.
# target.desc: D(2) dopamine receptor (Homo sapiens)
# experimental.protocol: biochemical
# Assay type: cell-based, CHO
State the answer as a number, implicitly in nM.

O=Cc1c(OCCCCN2CCN(c3cccc(Cl)c3Cl)CC2)nn2ccccc12 10

Query block: Give the measured Ki of "O=Cc1cc2cc(OCCCCN3CCN(c4cccc(Cl)c4Cl)CC3)ccn2n1" .
Result block: 14

Query block: Please report the recorded Ki for "N#Cc1cc2cc(OCCCCN3CCN(c4cccc(Cl)c4Cl)CC3)ccn2n1" .
Result block: 8.9

Query block: Name the reported Ki value associated with the compound "CCOC(=O)c1cc2cc(OCCCCN3CCN(c4cccc(Cl)c4Cl)CC3)ccn2n1"
Result block: 7.4

Query block: For the compound shown here, "O=Cc1cnn2cc(OCCCCN3CCN(c4cccc(Cl)c4Cl)CC3)ccc12" , give the reported Ki.
Result block: 6.2

This collection of values is drawn from ChEMBL document CHEMBL3286313.
